Attribute: MLR assay (EC50)
tgt: human CD28 (human, UniProt P10747 19-220)
procedureSummary: cell-based or functional assay

| binder | MLR assay (EC50) [nM] |
| --- | --- |
| 1h-99-243 (other) VH: EVQLLESGGGLVQPGGSLRLSCAASGFTFDSANMSWGRQAPGKGLEWVSWIEASGVQTFYADSVKGRFTISRDNSKNTLYLQMNSLRAEDTAVYYCAKSPFGPLYGFDYRGQGTLVTVSS | 8 |
| 1h-99-276 (other) VH: EVQLLESGGGLVQPGGSLRLSCAASGFTFNRANMSWARQAPGKGLEWVSWIEDTGTQTFYADSVKGRFTISRDNSKNTLYLQMNSLRAEDTAVYYCAKSPFGPLYGFDYRGQGTLVTVSS | 18 |
| 1h-99-222 (other) VH: EVQLLESGGGLVQPGGSLRLSCAASGFTFQRSNMSWVRQAPGKGLEWVSWIEDTGTQTFYADSVKGRFTISRDNSKNTLYLQMNSLRAEDTAVYYCAKSPFGPLYGFDYRGQGTLVTVSS | 28 |
| 1h-99-263 (other) VH: EVQLLESGGGLVQPGGSLRLSCAASGFTFYKANMSWVRQAPGKGLEWVSWIEASGVQTFYADSVKGRFTISRDNSKNTLYLQMNSLRAEDTAVYYCAKSPFGPLYGFDYRGQGTLVTVSS | 4 |
| 1h-99-277 (other) VH: EVQLLESGGGLVQPGGSLRLSCAASGFTFDSANMSWARQAPGKGLEWVSWIEAVGVQTFYADSVKGRFTISRDNSKNTLYLQMNSLRAEDTAVYYCAKSPFGPLYGFDYRGQGTLVTVSS | 9 |
| 1h-239-870 (other) VL: DIQMTQSPSSLSASVGDRVTITCRASQSIYPFLEWYQQKPGKAPKLLIYFTSRLQSGVPSRFSGSGSGTDFTLTISSLQPEDFATYYCLQNVMMPATFSQGTKVEIKR | 3 |
| 1h-36 (other) VL: DIQMTQSPSSLSASVGDRVTITCRASRDIALDLLWYQQKPGKAPKLLIKGWSGLQSGVPSRFSGSGSGTDFTLTISSLQPEDFATYYCAQGWGRPVTFGQGTKVEIKR | 1800 |
| 1h-99-224 (other) VH: EVQLLESGGGLVQPGGSLRLSCAASGFTFSHNNMSWVRQAPGKGLEWVSWIEDTGTQTFYADSVKGRFTISRDNSKNTLYLQMNSLRAEDTAVYYCAKSPFGPLYGFDYRGQGTLVTVSS | 28 |
